# ASSAY_REMARKS: Human coffee intervention study: plasma concentrations after roasted coffee brew by UPLC-MS/MS
# Type: in vivo
# CONDITION_INFO: human, plasma, oral, 200 mL, participant ayia, 1 h after coffee; read-out: plasma concentration, individual
Let's look at some molecules and their measured concentration at 1 h.
Form entry: value (nM) — number only.

For orientation, consider the following solved cases.
| MOLECULE | concentration at 1 h / nM |
| --- | --- |
| C=C1C2CCC3C4(C)CC(O)CC(C(=O)OC5OC(C(=O)O)C(O)C(O)C5O)C4CCC3(C2)C1O [M1, atractyligenin-19-O-β-D-glucuronide] | 16.4 |
| C=C1[C@@H]2CC[C@@H]3[C@@](CCC4[C@H](C(=O)O)C[C@@H](O)C[C@]43C)(C2)[C@@H]1O (stereo partly drawn) [compound 1, atractyligenin] | 36.5 |

Moving on to another molecule below.
QUERY: Fill in reported concentration at 1 h for this entry: CC1C(=O)C23CCC4C(C(=O)OC5OC(C(=O)O)C(O)C(O)C5O)CC(O)CC4(C)C2CCC1C3 (stereo not drawn) [M2]
RESULT: 0.5

----------
# ASSAY_REMARKS: Human coffee intervention study: plasma concentrations after roasted coffee brew by UPLC-MS/MS
# Type: in vivo
# CONDITION_INFO: human, plasma, oral, 200 mL, participant ggot, 10 h after coffee; b = below LLOQ; read-out: plasma concentration, individual
Let's look at some compounds and their measured concentration at 10 h.
Form entry: value (nM) — number only.

For orientation, consider the following solved cases.
| COMPOUND | UNIT_LABEL | ENDPOINT_RESULT |
| --- | --- | --- |
| CC1C(=O)C23CCC4C(C(=O)OC5OC(C(=O)O)C(O)C(O)C5O)CC(O)CC4(C)C2CCC1C3 (stereo not shown) [M2] | nM | 0.6 |
| C=C1[C@@H]2CC[C@@H]3[C@@](CCC4[C@H](C(=O)O)C[C@@H](O)C[C@]43C)(C2)[C@@H]1O (stereo partly shown) [compound 1, atractyligenin] | nM | 2.3 |
| CC1C(=O)C23CCC4C(C(=O)O)CC(OC5OC(C(=O)O)C(O)C(O)C5O)CC4(C)C2CCC1C3 (stereo not shown) [M3] | nM | 180 |

Moving on to another compound below.
QUERY: Fill in reported concentration at 10 h for this entry: C=C1C2CCC3C4(C)CC(O)CC(C(=O)OC5OC(C(=O)O)C(O)C(O)C5O)C4CCC3(C2)C1O [M1, atractyligenin-19-O-β-D-glucuronide]
RESULT: 1.7

----------
# ASSAY_REMARKS: Human coffee intervention study: plasma concentrations after roasted coffee brew by UPLC-MS/MS
# Assay type: in vivo
# CONDITION_INFO: human, plasma, oral, 200 mL coffee brew, participant xrwz, 4 h after coffee; b = below LLOQ; read-out: plasma concentration, individual
MEASURE_NAME: concentration at 4 h (nM)
Form entry: value (nM) — number only.

QUERY: Fill in reported concentration at 4 h for this entry: C=C1C2CCC3C4(C)CC(O)CC(C(=O)OC5OC(C(=O)O)C(O)C(O)C5O)C4CCC3(C2)C1O [M1, atractyligenin-19-O-β-D-glucuronide]
RESULT: 1.7

----------
Let's look at some compounds and their measured concentration at 1 h.
# ASSAY_REMARKS: Human coffee intervention study: plasma concentrations after roasted coffee brew by UPLC-MS/MS
# Format: in vivo
# CONDITION_INFO: human, plasma, oral, 200 mL, participant rrmk, 1 h after coffee; read-out: plasma concentration, individual
# Protocol: The study included ten volunteers (5 females, 5 males) (age: 28.3 ± 2.3 years; BMI: 21.89 ± 2.22 kg/m^2). […] The study participants underwent a dietary protocol that excluded all forms of coffee consumption. […] The meal was composed of pasta, margarine, and salt, and the amount of energy was calculated based on the participant’s basal energy demand. […]
Form entry: value (nM) — number only.

| COMPOUND | MEASURE_NAME | ENDPOINT_RESULT |
| --- | --- | --- |
| C=C1[C@@H]2CC[C@@H]3[C@@](CCC4[C@H](C(=O)O)C[C@@H](O)C[C@]43C)(C2)[C@@H]1O (some centres unmarked) | concentration at 1 h | 42.7 |

Moving on to another compound below.
QUERY: Fill in reported concentration at 1 h for this entry: C=C1C2CCC3C4(C)CC(O)CC(C(=O)OC5OC(C(=O)O)C(O)C(O)C5O)C4CCC3(C2)C1O [M1, atractyligenin-19-O-β-D-glucuronide]
RESULT: 22
